# Tested on: E. coli TESEC Mtb Alr
# Measurement Notes: growth (OD600 after 10 h); higher = more growth (less inhibition)
# Measurement Conditions: arabinose 100000 nM; compound 0.1 mM; raw OD600 reference: median of DMSO wells 0.201, cell-free background 0.041
Measured Quantity: growth
Field format: numeric only.

Can you look up the measured growth of CCN1CCN(C(=O)N[C@@H](C(=O)N[C@@H]2C(=O)N3C(C(=O)O)=C(CSc4nnnn4C)CS[C@H]23)c2ccc(O)cc2)C(=O)C1=O [Cefoperazone dihydrate] for me? 0.3

Repeat with `COc1ncnc(NS(=O)(=O)c2ccc(N)cc2)c1OC` 0.192

One more compound: `Cc1ccnc(NS(=O)(=O)c2ccc(N)cc2)n1` 0.211

Also CN(N=O)C(=O)N[C@H]1C(O)O[C@H](CO)[C@@H](O)[C@@H]1O (mixture of isomers) , if possible. 0.147

Then what about the compound `Clc1ccccc1C(c1ccccc1)(c1ccccc1)n1ccnc1` ? 0.0437

---

# Tested on: E. coli TESEC Mtb Asd
# Measurement Notes: growth (OD600 after 10 h); higher = more growth (less inhibition)
# Measurement Conditions: arabinose induction (level): Low; compound 0.1 mM; raw OD600 reference: median of DMSO wells 0.417, cell-free background 0.041
Counter-ions that a name gives are not always drawn.
Returns T if the recorded growth is greater than or equal to 0.4, and F otherwise.

Is growth for CCc1ccc(CCOc2ccc(CC3SC(=O)NC3=O)cc2)nc1 (centres undefined) at or above 0.4? F

Could you do the same for `CC(=O)Oc1ccccc1C(=O)Oc1ccccc1C(=O)O` , please? T

Next compound: CC(Oc1c(Cl)cccc1Cl)C1=NCCN1 (centres undefined) T

Now consider CC(C)COCC(CN(Cc1ccccc1)c1ccccc1)N1CCCC1 (centres undefined) [Bepridil hydrochloride] . F

Try this compound next: COCC1=C(C(=O)OC(C)OC(=O)OC(C)C)N2C(=O)[C@@H](NC(=O)/C(=N\OC)c3csc(N)n3)[C@H]2SC1 (some centres undefined) F

Next: Cc1onc(-c2c(F)cccc2Cl)c1C(=O)N[C@@H]1C(=O)N2[C@@H]1SC(C)(C)[C@@H]2C(=O)O [Flucloxacillin sodium] T

Repeat with C[n+]1ccccc1/C=N/O [Pralidoxime chloride] T

Also check `Nc1ncnc2c1ncn2[C@@H]1O[C@H](CO)[C@@H](O)[C@@H]1O` F

Also CC1(C)S[C@@H]2[C@H](NC(=O)Cc3ccccc3)C(=O)N2[C@H]1C(=O)O [Benzylpenicillin sodium] , if possible. F

Do the same for CCC1=C(C)CN(C(=O)NCCc2ccc(S(=O)(=O)NC(=O)N[C@H]3CC[C@H](C)CC3)cc2)C1=O [Glimepiride] please T

Repeat with CC(=C(CCO)SSCC1CCCO1)N(C=O)Cc1cnc(C)nc1N (stereo in doubt) [Fursultiamine Hydrochloride] F

Proceed to CC(=O)O[C@H]1C[C@@]2(C)[C@@H](C[C@@H](O)[C@H]3[C@@]4(C)CC[C@@H](O)[C@@H](C)[C@@H]4CC[C@@]32C)/C1=C(\CCC=C(C)C)C(=O)O [Fusidic acid sodium salt] F

Now this one: N=C(N)NCC1COC2(CCCCC2)O1 (centres undefined) [Guanadrel sulfate] F

Moving on to COc1cccc2c1C(=O)c1c(O)c3c(c(O)c1C2=O)C[C@@](O)(C(C)=O)C[C@@H]3O[C@H]1C[C@H](N)[C@H](O)[C@H](C)O1 [Daunorubicin hydrochloride] F

Quick one: CC1(C)O[C@@H]2C[C@H]3[C@@H]4C[C@H](F)C5=CC(=O)C=C[C@]5(C)[C@H]4[C@@H](O)C[C@]3(C)[C@]2(C(=O)CO)O1 [Flunisolide] T

Another compound: `Nc1nnc(-c2cccc(Cl)c2Cl)c(N)n1` F

Okay, and CN(C)CCCN1c2ccccc2CCc2ccc(Cl)cc21 [Clomipramine hydrochloride] ? F

Thanks! And `C[C@H]1C[C@@H]2[C@H]([C@@H](O)C[C@@]3(C)[C@H]2CC[C@]3(O)C(=O)CO)[C@@]2(C)C=CC(=O)C=C12` ? T

Also `c1ccc2[nH]c(-c3cscn3)nc2c1` , if possible. F

How about this compound: CCc1nn(CCCN2CCN(c3cccc(Cl)c3)CC2)c(=O)n1CCOc1ccccc1 [Nefazodone HCl] F

// query: C=C1C(=O)O[C@H]2[C@H]1CC/C(C)=C/CC[C@@]1(C)O[C@@H]21 [Parthenolide] F

Now consider NC(=O)N1c2ccccc2C=Cc2ccccc21 [Carbamazepine] . F

Similarly, `C[C@H]1O[C@@H](O[C@H]2[C@@H](O)C[C@H](O[C@H]3[C@@H](O)C[C@H](O[C@H]4CC[C@@]5(C)[C@H](CC[C@@H]6[C@@H]5C[C@@H](O)[C@]5(C)[C@@H](C7=CC(=O)OC7)CC[C@]65O)C4)O[C@@H]3C)O[C@@H]2C)C[C@H](O)[C@@H]1O` ? T

Same thing, different compound: `CCOc1nc2cccc(C(=O)O)c2n1Cc1ccc(-c2ccccc2-c2nnn[nH]2)cc1` F
